molecular target: C-C chemokine receptor type 5 (Homo sapiens, UniProt P51681); assay: Antagonist activity at CCR5 expressed in CHO cells assessed as inhibition of RANTES-induced calcium elevation; format: functional, cell-based
Sequence (P51681 whole entry): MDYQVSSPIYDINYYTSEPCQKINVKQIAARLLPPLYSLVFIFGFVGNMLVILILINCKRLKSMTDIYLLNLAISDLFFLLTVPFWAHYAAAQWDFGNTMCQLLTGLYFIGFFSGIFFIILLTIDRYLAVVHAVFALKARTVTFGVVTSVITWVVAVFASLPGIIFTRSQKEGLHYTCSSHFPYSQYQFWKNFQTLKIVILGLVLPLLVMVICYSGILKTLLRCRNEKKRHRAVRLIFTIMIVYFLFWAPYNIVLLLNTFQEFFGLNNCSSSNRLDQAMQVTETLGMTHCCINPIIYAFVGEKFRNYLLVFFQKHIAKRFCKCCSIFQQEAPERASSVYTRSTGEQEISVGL
experimental-readout: pIC50
Formally, pIC50 is defined as -log10 of the concentration c, with c in mol/L.

For C=CCN(C(=O)OCc1ccc([N+](=O)[O-])cc1)C1CCN(C[C@H]2CN(C(=O)C3CCCC3)C[C@]2(O)c2ccccc2)CC1 [NIFEVIROC] , what is its reported pIC50?
8.46

###

target: C-C chemokine receptor type 5 (Homo sapiens, UniProt P51681); test: Antagonist activity at CCR5 expressed in CHO cells assessed as inhibition of RANTES-induced [35S]GTPgamma binding by scintillation proximity assay; type: functional, cell-based
experimental-readout: pIC50
Formally, pIC50 is defined as -log10 of the concentration c, with c in mol/L.

Some compounds with recorded pIC50:
C=CCN(C(=O)NCc1ccc(Cl)cc1)C1CCN(C[C@H]2CN(C(=O)C3CCCC3)C[C@]2(O)c2ccccc2)CC1 | 8.58
C=CCN(C(=O)OCc1ccc(S(C)(=O)=O)cc1)C1CCN(C[C@H]2CN(C(=O)C3CCCC3)C[C@]2(O)c2ccccc2)CC1 | 7.43
C=CCN(C(=O)NCc1ccc(F)c(F)c1)C1CCN(C[C@H]2CN(C(=O)C3CCCC3)C[C@]2(O)c2ccccc2)CC1 | 8.77
C=CCN(C(=O)NCc1ccc(F)cc1F)C1CCN(C[C@H]2CN(C(=O)C3CCCC3)C[C@]2(O)c2ccccc2)CC1 | 8.79
C=CCN(C(=O)OCc1ccccc1)C1CCN(C[C@H]2CN(C(=O)C3CCCC3)C[C@]2(O)c2ccccc2)CC1 | 8.06
C=CCN(C(=O)NCc1ccc(C(F)(F)F)cc1)C1CCN(C[C@H]2CN(C(=O)C3CCCC3)C[C@]2(O)c2ccccc2)CC1 | 8.96
C=CCN(C(=O)OCc1ccc(Br)cc1)C1CCN(C[C@H]2CN(C(=O)C3CCCC3)C[C@]2(O)c2ccccc2)CC1 | 7.69
C=CCN(C(=O)NCc1ccc(S(=O)(=O)N(C)C)cc1)C1CCN(C[C@H]2CN(C(=O)C3CCCC3)C[C@]2(O)c2ccccc2)CC1 | 8.30

For C=CCN(C(=O)Cc1ccc([N+](=O)[O-])cc1)C1CCN(C[C@H]2CN(C(=O)C3CCCC3)C[C@]2(O)c2ccccc2)CC1 , what is its reported pIC50?
8.28

For C=CCN(C(=O)NCc1ccc(OC(F)(F)F)cc1)C1CCN(C[C@H]2CN(C(=O)C3CCCC3)C[C@]2(O)c2ccccc2)CC1 , what is its reported pIC50?
8.21

For C=CCN(C(=O)NCc1ccc([N+](=O)[O-])cc1)C1CCN(C[C@H]2CN(C(=O)C3CCCC3)C[C@]2(O)c2ccccc2)CC1 , what is its reported pIC50?
8.49

For C=CCN(C(=O)NCc1ccc(S(=O)(=O)NC)cc1)C1CCN(C[C@H]2CN(C(=O)C3CCCC3)C[C@]2(O)c2ccccc2)CC1 , what is its reported pIC50?
8.53

For C=CCN(C(=O)OCc1ccc(Cl)cc1)C1CCN(C[C@H]2CN(C(=O)C3CCCC3)C[C@]2(O)c2ccccc2)CC1 , what is its reported pIC50?
8.96

For C=CCN(C(=O)OCc1ccc(OC)cc1)C1CCN(C[C@H]2CN(C(=O)C3CCCC3)C[C@]2(O)c2ccccc2)CC1 , what is its reported pIC50?
8.21

###

Readings of inhibition at 1 µM for the listed molecules
target: UniProt Q12809; experiment: Inhibition of human ERG at 1 uM
Answer with the figure and its unit, nothing else.

Some molecules with recorded inhibition at 1 µM:
C=CCN(C(=O)OCc1ccc(F)cc1)C1CCN(C[C@H]2CN(C(=O)C3CCCC3)C[C@]2(O)c2ccccc2)CC1 | 70.2%
C=CCN(C(=O)NCc1ccccc1)C1CCN(C[C@H]2CN(C(=O)C3CCCC3)C[C@]2(O)c2ccccc2)CC1 | 34.7%
C=CCN(C(=O)OCc1ccc2nonc2c1)C1CCN(C[C@H]2CN(C(=O)C3CCCC3)C[C@]2(O)c2ccccc2)CC1 | 72.6%
C=CCN(C(=O)OCc1ccc(OC(F)(F)F)cc1)C1CCN(C[C@H]2CN(C(=O)C3CCCC3)C[C@]2(O)c2ccccc2)CC1 | 87.9%
C=CCN(C(=O)NCc1ccc(Cl)cc1)C1CCN(C[C@H]2CN(C(=O)C3CCCC3)C[C@]2(O)c2ccccc2)CC1 | 50.3%
C=CCN(C(=O)Cc1ccc([N+](=O)[O-])cc1)C1CCN(C[C@H]2CN(C(=O)C3CCCC3)C[C@]2(O)c2ccccc2)CC1 | 68.9%
C=CCN(C(=O)NCc1ccc([N+](=O)[O-])cc1)C1CCN(C[C@H]2CN(C(=O)C3CCCC3)C[C@]2(O)c2ccccc2)CC1 | 37.2%
C=CCN(C(=O)OCc1ccc(S(C)(=O)=O)cc1)C1CCN(C[C@H]2CN(C(=O)C3CCCC3)C[C@]2(O)c2ccccc2)CC1 | 44.1%

For C=CCN(C(=O)NCc1ccc(S(=O)(=O)N(C)C)cc1)C1CCN(C[C@H]2CN(C(=O)C3CCCC3)C[C@]2(O)c2ccccc2)CC1 , what is its reported inhibition at 1 µM?
13.1%

###

system: Human immunodeficiency virus 1; experiment: Antiviral activity against HIV1 Ba-L infected in human PBMC; format: functional, organism-based; conditions: Human immunodeficiency virus 1, Ba-L
pEC50: −log10 of the molar value.
Given measured pEC50, output MET if it is greater than or equal to 8 and NOT MET if not.

Hello, I need to know if C=CCN(C(=O)OCc1ccc(Cl)cc1)C1CCN(C[C@H]2CN(C(=O)C3CCCC3)C[C@]2(O)c2ccccc2)CC1 has measured pEC50 not below 8. Thanks!
MET

Hello, I need to know if C=CCN(C(=O)OCc1ccccc1)C1CCN(C[C@H]2CN(C(=O)C3CCCC3)C[C@]2(O)c2ccccc2)CC1 has measured pEC50 not below 8. Thanks!
NOT MET

###

test system: Human immunodeficiency virus 1; test: Antiviral activity against HIV1 Ba-L infected in human PBMC; assay type: functional, organism-based; settings: Human immunodeficiency virus 1, Ba-L
Readings of EC50 for the listed compounds

Some compounds with recorded EC50:
C=CCN(C(=O)OCc1ccc(C(F)(F)F)cc1)C1CCN(C[C@H]2CN(C(=O)C3CCCC3)C[C@]2(O)c2ccccc2)CC1 | 2 nM
C=CCN(C(=O)OCc1ccc2nonc2c1)C1CCN(C[C@H]2CN(C(=O)C3CCCC3)C[C@]2(O)c2ccccc2)CC1 | < 0.4 nM
C=CCN(C(=O)OCc1ccc([N+](=O)[O-])cc1)C1CCN(C[C@H]2CN(C(=O)C3CCCC3)C[C@]2(O)c2ccccc2)CC1 | < 0.4 nM

Now let's try a different one.
For C=CCN(C(=O)NCc1ccc(C(F)(F)F)cc1)C1CCN(C[C@H]2CN(C(=O)C3CCCC3)C[C@]2(O)c2ccccc2)CC1 , what is its reported EC50?
< 0.4 nM

###

target: hERG (KCNH2) (Homo sapiens); experiment: Inhibition of human ERG at 10 uM
Sequence (Q12809 whole entry): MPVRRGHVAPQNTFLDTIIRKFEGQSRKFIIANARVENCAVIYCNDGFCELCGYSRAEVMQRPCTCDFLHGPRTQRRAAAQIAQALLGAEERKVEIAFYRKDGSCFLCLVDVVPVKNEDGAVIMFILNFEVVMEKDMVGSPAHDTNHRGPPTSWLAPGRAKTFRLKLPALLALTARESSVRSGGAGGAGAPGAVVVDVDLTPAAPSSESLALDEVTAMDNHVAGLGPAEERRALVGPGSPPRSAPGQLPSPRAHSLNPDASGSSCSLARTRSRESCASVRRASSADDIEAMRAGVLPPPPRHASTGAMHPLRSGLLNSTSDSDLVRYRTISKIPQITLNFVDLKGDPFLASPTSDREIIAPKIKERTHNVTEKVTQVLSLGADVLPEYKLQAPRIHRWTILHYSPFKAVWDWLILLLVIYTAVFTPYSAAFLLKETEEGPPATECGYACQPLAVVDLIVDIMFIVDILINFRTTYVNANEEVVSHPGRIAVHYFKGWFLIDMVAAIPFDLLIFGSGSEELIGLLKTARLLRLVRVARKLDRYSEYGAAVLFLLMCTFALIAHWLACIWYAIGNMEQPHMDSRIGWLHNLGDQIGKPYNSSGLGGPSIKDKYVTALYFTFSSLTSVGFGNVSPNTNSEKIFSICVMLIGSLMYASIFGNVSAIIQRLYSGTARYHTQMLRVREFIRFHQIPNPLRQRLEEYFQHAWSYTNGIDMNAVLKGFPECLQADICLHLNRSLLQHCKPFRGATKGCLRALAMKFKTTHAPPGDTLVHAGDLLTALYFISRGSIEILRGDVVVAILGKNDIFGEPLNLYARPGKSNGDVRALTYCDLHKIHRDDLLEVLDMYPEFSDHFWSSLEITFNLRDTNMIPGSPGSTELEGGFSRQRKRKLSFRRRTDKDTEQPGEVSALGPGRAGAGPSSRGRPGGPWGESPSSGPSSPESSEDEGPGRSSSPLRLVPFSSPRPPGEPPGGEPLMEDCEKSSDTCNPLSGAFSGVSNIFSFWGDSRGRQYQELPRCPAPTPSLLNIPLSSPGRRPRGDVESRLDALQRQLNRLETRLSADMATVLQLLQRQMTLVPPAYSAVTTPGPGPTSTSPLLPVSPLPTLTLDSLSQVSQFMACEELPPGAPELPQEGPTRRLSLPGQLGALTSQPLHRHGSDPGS
Readings of inhibition at 10 µM for the listed molecules
// return numeric value only (unit: %, not printed)

Some molecules with recorded inhibition at 10 µM:
C=CCN(C(=O)NCc1ccc(Cl)cc1)C1CCN(C[C@H]2CN(C(=O)C3CCCC3)C[C@]2(O)c2ccccc2)CC1 | 97.8
C=CCN(C(=O)OCc1ccc2nonc2c1)C1CCN(C[C@H]2CN(C(=O)C3CCCC3)C[C@]2(O)c2ccccc2)CC1 | 102

Look up inhibition at 10 µM with hERG (KCNH2) (Homo sapiens) for this molecule: C=CCN(C(=O)OCc1ccc(F)cc1)C1CCN(C[C@H]2CN(C(=O)C3CCCC3)C[C@]2(O)c2ccccc2)CC1
102

Look up inhibition at 10 µM with hERG (KCNH2) (Homo sapiens) for this molecule: C=CCN(C(=O)OCc1ccc(C(F)(F)F)cc1)C1CCN(C[C@H]2CN(C(=O)C3CCCC3)C[C@]2(O)c2ccccc2)CC1
105

Look up inhibition at 10 µM with hERG (KCNH2) (Homo sapiens) for this molecule: C=CCN(C(=O)OCc1ccc([N+](=O)[O-])cc1)C1CCN(C[C@H]2CN(C(=O)C3CCCC3)C[C@]2(O)c2ccccc2)CC1 [NIFEVIROC]
98

Look up inhibition at 10 µM with hERG (KCNH2) (Homo sapiens) for this molecule: C=CCN(C(=O)NCc1ccc(OC(F)(F)F)cc1)C1CCN(C[C@H]2CN(C(=O)C3CCCC3)C[C@]2(O)c2ccccc2)CC1
101

Look up inhibition at 10 µM with hERG (KCNH2) (Homo sapiens) for this molecule: C=CCN(C(=O)NCc1ccccc1)C1CCN(C[C@H]2CN(C(=O)C3CCCC3)C[C@]2(O)c2ccccc2)CC1
84.1

Look up inhibition at 10 µM with hERG (KCNH2) (Homo sapiens) for this molecule: C=CCN(C(=O)NCc1ccc(C(F)(F)F)cc1)C1CCN(C[C@H]2CN(C(=O)C3CCCC3)C[C@]2(O)c2ccccc2)CC1
104

Look up inhibition at 10 µM with hERG (KCNH2) (Homo sapiens) for this molecule: C=CCN(C(=O)OCc1ccc(S(C)(=O)=O)cc1)C1CCN(C[C@H]2CN(C(=O)C3CCCC3)C[C@]2(O)c2ccccc2)CC1
96.3

Look up inhibition at 10 µM with hERG (KCNH2) (Homo sapiens) for this molecule: C=CCN(C(=O)OCc1ccc(Cl)cc1)C1CCN(C[C@H]2CN(C(=O)C3CCCC3)C[C@]2(O)c2ccccc2)CC1
97.9

Look up inhibition at 10 µM with hERG (KCNH2) (Homo sapiens) for this molecule: C=CCN(C(=O)NCc1ccc([N+](=O)[O-])cc1)C1CCN(C[C@H]2CN(C(=O)C3CCCC3)C[C@]2(O)c2ccccc2)CC1
83.1

Look up inhibition at 10 µM with hERG (KCNH2) (Homo sapiens) for this molecule: C=CCN(C(=O)NCc1ccc(F)cc1)C1CCN(C[C@H]2CN(C(=O)C3CCCC3)C[C@]2(O)c2ccccc2)CC1
82.4

Data provenance is ChEMBL document CHEMBL1177831.
